Attribution: ChEMBL document CHEMBL5131383

Exercise: for every item that follows, state its recorded inhibition.
Molecular target: Poly [ADP-ribose] polymerase 1 (Homo sapiens)
Test: Inhibition of human PARP1 using NAD+ as substrate at 5 nM incubated for 1 hr by ELISA relative to control
Numbers only, in %.

Before answering, review these 4 worked examples.
| compound | value observed |
| --- | --- |
| NC1CCN(Cc2cccc(-c3[nH]c4cc(F)cc5c4c3CCNC5=O)c2)CC1 | 85.8 |
| O=C1NCCc2c(-c3ccc(CN4CCCC(F)(F)C4)cc3)[nH]c3cc(F)cc1c23 | 69.3 |
| O=C1NCCc2c(-c3ccc(CN4CCN(C(=O)C5CC5)CC4)cc3)[nH]c3cc(F)cc1c23 | 85 |
| CN1CCN(Cc2cccc(-c3[nH]c4cc(F)cc5c4c3CCNC5=O)c2)CC1 | 61.2 |

Fill in inhibition for each of the 5 compounds listed.
1. CC1(NC(=O)OC(C)(C)C)CCN(Cc2cccc(-c3[nH]c4cc(F)cc5c4c3CCNC5=O)c2)CC1
2. CCN(CC)Cc1ccc(-c2[nH]c3cc(F)cc4c3c2CCNC4=O)cc1
3. O=C1NCCc2c(-c3ccc([N+](=O)[O-])cc3)[nH]c3cc(F)cc1c23
4. CN1CCN(Cc2ccc(-c3[nH]c4cc(F)cc5c4c3CCNC5=O)cc2)CC1
5. NC1CCCN(Cc2cccc(-c3[nH]c4cc(F)cc5c4c3CCNC5=O)c2)C1 (centres undefined)

Marked response:
1. 59.7
2. 94
3. 88.7
4. 83.1
5. 64.8

----------
Test system: MCF7
Assay: Antiproliferative activity against human MCF7 cells assessed as inhibition of cell growth incubated for 48 hrs by MTT assay
Type: functional, cell-based
Conditions: MCF7, 48 h
quantity: IC50 (µM)
Give bare numbers, in µM.

Before answering, review these 4 worked examples.
| compound smiles | IC50, µM |
| --- | --- |
| CNCc1ccc(-c2[nH]c3cc(F)cc4c3c2CCNC4=O)cc1 | 6.61 |
| NC1CCN(Cc2cccc(-c3[nH]c4cc(F)cc5c4c3CCNC5=O)c2)CC1 | 124 |
| C[C@@H]1CN(Cc2ccc(-c3[nH]c4cc(F)cc5c4c3CCNC5=O)cc2)CCN1 | 46.5 |
| CCN(CC)Cc1ccc(-c2[nH]c3cc(F)cc4c3c2CCNC4=O)cc1 | 80.6 |

Would you kindly look at the next entry?
Exam item: Looking for the measured IC50 of NC1CCN(Cc2ccc(-c3[nH]c4cc(F)cc5c4c3CCNC5=O)cc2)CC1 , can you help?
Marked response: 59.5

----------
Quick record: IC50, UniProtKB P09874.
One number for each entry, in nM.

Before answering, review these 3 worked examples.
| compound smiles | target of assay | IC50 (nM) |
| --- | --- | --- |
| NC1CCN(Cc2ccc(-c3[nH]c4cc(F)cc5c4c3CCNC5=O)cc2)CC1 | UniProtKB P09874 | 0.41 |
| CCN(CC)Cc1ccc(-c2[nH]c3cc(F)cc4c3c2CCNC4=O)cc1 | UniProtKB P09874 | 0.61 |
| O=C1NCCc2c(-c3ccc(CN4CCN(CCO)CC4)cc3)[nH]c3cc(F)cc1c23 | UniProtKB P09874 | 1.54 |

Exam item: Looking for the measured IC50 of CC(C)(C)OC(=O)NC1CCN(Cc2ccc(-c3[nH]c4cc(F)cc5c4c3CCNC5=O)cc2)CC1 , can you help?
Marked response: 1.17

----------
Target: Poly [ADP-ribose] polymerase 1 (Homo sapiens, UniProt P09874)
Sequence (P09874 whole entry): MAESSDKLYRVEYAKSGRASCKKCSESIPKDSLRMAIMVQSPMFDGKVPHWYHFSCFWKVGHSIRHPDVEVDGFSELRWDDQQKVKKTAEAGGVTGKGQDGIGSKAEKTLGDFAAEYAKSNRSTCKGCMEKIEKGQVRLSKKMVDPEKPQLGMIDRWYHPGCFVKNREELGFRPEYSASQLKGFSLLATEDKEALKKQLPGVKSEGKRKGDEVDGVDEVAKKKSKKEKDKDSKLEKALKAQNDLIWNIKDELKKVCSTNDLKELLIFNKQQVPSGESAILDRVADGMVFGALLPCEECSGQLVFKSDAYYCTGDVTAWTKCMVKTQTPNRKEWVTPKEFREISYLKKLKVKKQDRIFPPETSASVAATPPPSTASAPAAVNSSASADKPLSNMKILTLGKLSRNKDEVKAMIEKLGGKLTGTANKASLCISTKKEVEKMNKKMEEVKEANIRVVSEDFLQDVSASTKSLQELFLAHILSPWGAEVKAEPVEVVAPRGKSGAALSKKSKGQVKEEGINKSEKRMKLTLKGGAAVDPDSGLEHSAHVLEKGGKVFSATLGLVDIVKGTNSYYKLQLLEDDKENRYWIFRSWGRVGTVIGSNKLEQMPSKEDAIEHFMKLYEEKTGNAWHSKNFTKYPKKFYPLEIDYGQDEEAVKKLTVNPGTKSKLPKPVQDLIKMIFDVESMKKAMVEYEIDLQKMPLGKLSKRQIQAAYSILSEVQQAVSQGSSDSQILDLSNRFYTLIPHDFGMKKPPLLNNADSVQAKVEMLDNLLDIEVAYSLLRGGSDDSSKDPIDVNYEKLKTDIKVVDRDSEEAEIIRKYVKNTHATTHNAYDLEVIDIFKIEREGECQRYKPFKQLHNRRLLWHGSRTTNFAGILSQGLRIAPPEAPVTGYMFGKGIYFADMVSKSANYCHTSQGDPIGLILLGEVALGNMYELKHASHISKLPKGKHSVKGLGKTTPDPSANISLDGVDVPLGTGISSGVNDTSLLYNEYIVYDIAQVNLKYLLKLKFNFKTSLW
Assay: Inhibition of human PARP1 using NAD+ as substrate at 5 nM incubated for 1 hr by ELISA relative to control
inhibition vs 80%: at or above is condition met, below is condition not met.

# count of solved cases: 6
| compound | class name |
| --- | --- |
| O=C1NCCc2c(-c3ccc(CN4CCN(C(c5ccccc5)c5ccccc5)CC4)cc3)[nH]c3cc(F)cc1c23 | condition not met |
| CNCc1ccc(-c2[nH]c3cc(F)cc4c3c2CCNC4=O)cc1 [RUCAPARIB] | condition met |
| COc1ccc(-c2[nH]c3cc(F)cc4c3c2CCNC4=O)cc1 | condition met |
| Nc1cccc(-c2[nH]c3cc(F)cc4c3c2CCNC4=O)c1 | condition not met |
| CC1(N)CCN(Cc2ccc(-c3[nH]c4cc(F)cc5c4c3CCNC5=O)cc2)CC1 | condition met |
| NC1CCN(Cc2ccc(-c3[nH]c4cc(F)cc5c4c3CCNC5=O)cc2)CC1 | condition met |

// next entry
Exam item: Dear colleague, could you confirm whether CC(=O)N1CCN(Cc2cccc(-c3[nH]c4cc(F)cc5c4c3CCNC5=O)c2)CC1 has inhibition at or above 80%?
Marked response: condition not met

----------
Species on record: Homo sapiens
Assay: Selectivity index, ratio of IC50 for human PARP2 to IC50 for human PARP1
quantity: Ratio IC50
One number for each entry.

Before answering, review these 2 worked examples.
| compound smiles | Ratio IC50 |
| --- | --- |
| O=C1NCCc2c(-c3ccc(CN4CCN(c5ncccn5)CC4)cc3)[nH]c3cc(F)cc1c23 | 4.8 |
| CC(=O)N1CCN(Cc2ccc(-c3[nH]c4cc(F)cc5c4c3CCNC5=O)cc2)CC1 | 4.9 |

Fill in Ratio IC50 for each of the 2 compounds listed.
1. CC(C)(C)OC(=O)NC1CCN(Cc2ccc(-c3[nH]c4cc(F)cc5c4c3CCNC5=O)cc2)CC1
2. O=C1NCCc2c(-c3ccc(CN4CCN(CCO)CC4)cc3)[nH]c3cc(F)cc1c23

Marked response:
1. 6.9
2. 4.3

----------
Exercise: for every item that follows, state its recorded inhibition.
Target: Poly [ADP-ribose] polymerase 1 (Homo sapiens)
Experiment: Inhibition of human PARP1 using NAD+ as substrate at 5 nM incubated for 1 hr by ELISA relative to control
One number for each entry, in %.

| compound | quantity | value observed |
| --- | --- | --- |
| CC(C)(C)OC(=O)NC1CCCN(Cc2cccc(-c3[nH]c4cc(F)cc5c4c3CCNC5=O)c2)C1 (stereo not drawn) | inhibition | 55.6 |
| CC1(N)CCN(Cc2cccc(-c3[nH]c4cc(F)cc5c4c3CCNC5=O)c2)CC1 | inhibition | 79.2 |
| O=C1NCCc2c(-c3ccc(CN4CCN(CCO)CC4)cc3)[nH]c3cc(F)cc1c23 | inhibition | 84.5 |
| CC(C)(C)OC(=O)NC1CCCN(Cc2ccc(-c3[nH]c4cc(F)cc5c4c3CCNC5=O)cc2)C1 (stereo not drawn) | inhibition | 90.1 |
| O=C(O)c1cccc(-c2[nH]c3cc(F)cc4c3c2CCNC4=O)c1 | inhibition | 44.9 |
| CC(C)(C)OC(=O)N1CCN(Cc2ccc(-c3[nH]c4cc(F)cc5c4c3CCNC5=O)cc2)CC1 | inhibition | 74.2 |
| O=C1NCCc2c(-c3ccc(OCc4ccccc4)cc3)[nH]c3cc(F)cc1c23 | inhibition | 50.6 |
| O=C1NCCc2c(-c3ccc(N4CCNCC4)cc3)[nH]c3cc(F)cc1c23 | inhibition | 83.9 |

Fill in inhibition for each of the 2 compounds listed.
1. Nc1ccc(-c2[nH]c3cc(F)cc4c3c2CCNC4=O)cc1
2. Cc1ccc(-c2[nH]c3cc(F)cc4c3c2CCNC4=O)cc1[N+](=O)[O-]

Marked response:
1. 84.5
2. 93.2

Fill in inhibition for each of the 5 compounds listed.
1. NC1CCCN(Cc2ccc(-c3[nH]c4cc(F)cc5c4c3CCNC5=O)cc2)C1 (stereo not drawn)
2. COc1cccc(-c2[nH]c3cc(F)cc4c3c2CCNC4=O)c1
3. O=C(O)c1ccc(-c2[nH]c3cc(F)cc4c3c2CCNC4=O)cc1
4. O=C1NCCc2c(-c3ccc(CN4CCN(c5ncccn5)CC4)cc3)[nH]c3cc(F)cc1c23
5. O=C1NCCc2c(-c3ccc(CN4CCN(c5cccc(C(F)(F)F)c5)CC4)cc3)[nH]c3cc(F)cc1c23

Marked response:
1. 87.9
2. 72
3. 43.2
4. 93.7
5. 22.1

Fill in inhibition for each of the 8 compounds listed.
1. O=C1NCCc2c(-c3ccc(N4CCOCC4)cc3)[nH]c3cc(F)cc1c23
2. N#Cc1ccc(-c2[nH]c3cc(F)cc4c3c2CCNC4=O)cc1
3. C[C@@H]1CN(Cc2cccc(-c3[nH]c4cc(F)cc5c4c3CCNC5=O)c2)CCN1
4. O=C1NCCc2c(-c3cccc(CN4CCN(C(=O)C5CC5)CC4)c3)[nH]c3cc(F)cc1c23
5. COC(=O)c1ccc(-c2[nH]c3cc(F)cc4c3c2CCNC4=O)cc1
6. C[C@@H]1CN(Cc2ccc(-c3[nH]c4cc(F)cc5c4c3CCNC5=O)cc2)CCN1C(=O)OC(C)(C)C
7. CC(C)N1CCN(Cc2ccc(-c3[nH]c4cc(F)cc5c4c3CCNC5=O)cc2)CC1
8. CC1(NC(=O)OC(C)(C)C)CCN(Cc2ccc(-c3[nH]c4cc(F)cc5c4c3CCNC5=O)cc2)CC1

Marked response:
1. 88.9
2. 94.1
3. 78.3
4. 46.1
5. 83.3
6. 31.2
7. 83.9
8. 87
